STUDY_TARGET: UniProt A0ABY9C1E0
ASSAY_PROCEDURE: Substrate screening, radiochemical analysis with UDP-[14C]glucose
Assay type: biochemical

COMPOUND: CC(C)=CCC/C(C)=C\CO [Nerol, (Z)-3,7-dimethyl-2,6-octadien-1-ol]
conversion as substrate (in words): glucosylated primarily
--
COMPOUND: CCCCCCO [hexanol]
conversion as substrate (in words): glucosylated primarily

====

STUDY_TARGET: VvGT15a (Vitis vinifera, UniProt A0ABY9C1E0)
Sequence (A0ABY9C1E0 entry or part of it): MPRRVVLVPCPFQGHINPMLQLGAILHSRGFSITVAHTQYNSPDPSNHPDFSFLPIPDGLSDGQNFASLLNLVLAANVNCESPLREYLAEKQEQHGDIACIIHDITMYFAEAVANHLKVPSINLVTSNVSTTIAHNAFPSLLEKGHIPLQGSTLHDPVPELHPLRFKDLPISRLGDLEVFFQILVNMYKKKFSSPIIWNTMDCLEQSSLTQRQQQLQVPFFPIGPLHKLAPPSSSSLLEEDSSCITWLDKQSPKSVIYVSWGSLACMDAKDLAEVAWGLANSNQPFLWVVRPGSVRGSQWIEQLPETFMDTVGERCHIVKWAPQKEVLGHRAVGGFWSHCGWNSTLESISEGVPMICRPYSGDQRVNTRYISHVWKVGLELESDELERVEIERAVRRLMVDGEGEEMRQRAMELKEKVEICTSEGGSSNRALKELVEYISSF
ASSAY_PROCEDURE: Substrate screening, radiochemical analysis with UDP-[14C]glucose
Assay type: biochemical
QUANTITY: conversion as substrate (in words)

Known results for compounds:
COMPOUND: CC(C)=CCC/C(C)=C/CO [Geraniol, (E)-3,7-dimethyl-2,6-octadien-1-ol]
STUDY_TARGET: VvGT15a (Vitis vinifera, UniProt A0ABY9C1E0)
RESULT: glucosylated primarily
--
COMPOUND: CCCCCCCCO [octanol]
STUDY_TARGET: VvGT15a (Vitis vinifera, UniProt A0ABY9C1E0)
RESULT: glucosylated primarily
--
COMPOUND: C=CC(C)(O)CC/C=C(\C)CO (stereo not drawn) [8-hydroxylinalool]
STUDY_TARGET: VvGT15a (Vitis vinifera, UniProt A0ABY9C1E0)
RESULT: able to use
--
COMPOUND: CC(C)=CCCC(C)CCO (racemic) [citronellol (rac), (R,S)-3,7-dimethyl-6-octen-1-ol]
STUDY_TARGET: VvGT15a (Vitis vinifera, UniProt A0ABY9C1E0)
RESULT: glucosylated primarily
--
COMPOUND: CCCCCCO [hexanol]
STUDY_TARGET: VvGT15a (Vitis vinifera, UniProt A0ABY9C1E0)
RESULT: glucosylated primarily

Determine reported conversion as substrate (in words) for CC(C)=CCC/C(C)=C\CO [Nerol, (Z)-3,7-dimethyl-2,6-octadien-1-ol] ; test system: VvGT15a (Vitis vinifera, UniProt A0ABY9C1E0).
glucosylated primarily

Determine reported conversion as substrate (in words) for CCC/C=C/CO [trans 2-hexenol] ; test system: VvGT15a (Vitis vinifera, UniProt A0ABY9C1E0).
able to use

====

STUDY_TARGET: VvGT15c (Vitis vinifera, UniProt A0ABY9C1E0)
Sequence (A0ABY9C1E0 entry or part of it): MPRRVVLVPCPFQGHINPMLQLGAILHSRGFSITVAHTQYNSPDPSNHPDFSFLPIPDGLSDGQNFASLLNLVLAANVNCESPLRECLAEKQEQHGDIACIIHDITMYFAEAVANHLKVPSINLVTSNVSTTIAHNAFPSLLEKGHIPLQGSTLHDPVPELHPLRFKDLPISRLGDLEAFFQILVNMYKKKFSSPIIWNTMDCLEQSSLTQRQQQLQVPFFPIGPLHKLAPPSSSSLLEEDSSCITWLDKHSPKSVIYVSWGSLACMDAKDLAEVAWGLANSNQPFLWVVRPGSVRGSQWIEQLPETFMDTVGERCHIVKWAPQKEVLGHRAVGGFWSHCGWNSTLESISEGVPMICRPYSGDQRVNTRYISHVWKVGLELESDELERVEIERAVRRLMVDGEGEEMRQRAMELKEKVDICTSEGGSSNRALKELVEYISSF
ASSAY_PROCEDURE: Substrate screening, radiochemical analysis with UDP-[14C]glucose
Format: biochemical
QUANTITY: conversion as substrate (in words)

MOLECULE: CC(C)=CCC/C(C)=C/CO [Geraniol, (E)-3,7-dimethyl-2,6-octadien-1-ol]
QUANTITY: conversion as substrate (in words)
RESULT: glucosylated primarily

MOLECULE: CC(C)=CCCC(C)CCO (racemic) [citronellol (rac), (R,S)-3,7-dimethyl-6-octen-1-ol]
QUANTITY: conversion as substrate (in words)
RESULT: glucosylated primarily

MOLECULE: CCCCCCCCO [octanol]
QUANTITY: conversion as substrate (in words)
RESULT: glucosylated primarily

====

STUDY_TARGET: VvGT14a (Vitis vinifera)
Sequence (F6H0R6 entry or part of it): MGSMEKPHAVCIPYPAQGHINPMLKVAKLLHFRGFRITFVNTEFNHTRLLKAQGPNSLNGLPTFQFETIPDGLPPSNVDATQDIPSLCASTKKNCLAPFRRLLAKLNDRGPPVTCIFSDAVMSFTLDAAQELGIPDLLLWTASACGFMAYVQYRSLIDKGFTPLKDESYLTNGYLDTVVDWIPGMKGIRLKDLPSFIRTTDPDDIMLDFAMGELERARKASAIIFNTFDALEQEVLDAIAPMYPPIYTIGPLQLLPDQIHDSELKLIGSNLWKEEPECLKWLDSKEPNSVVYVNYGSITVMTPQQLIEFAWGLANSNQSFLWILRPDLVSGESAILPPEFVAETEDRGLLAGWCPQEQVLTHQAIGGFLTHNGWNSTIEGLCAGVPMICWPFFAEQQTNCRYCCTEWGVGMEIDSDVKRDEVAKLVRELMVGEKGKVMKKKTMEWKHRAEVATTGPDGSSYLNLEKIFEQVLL
ASSAY_PROCEDURE: Substrate screening, radiochemical analysis with UDP-[14C]glucose
Format: biochemical
QUANTITY: conversion as substrate (in words)

MOLECULE: CC(C)=CCCC(C)CCO (racemic) [citronellol (rac), (R,S)-3,7-dimethyl-6-octen-1-ol]
conversion as substrate (in words): preferred

MOLECULE: N#CC(O)c1ccccc1 (stereo not drawn)
conversion as substrate (in words): catalytic activity

MOLECULE: C=C(C)CCO
conversion as substrate (in words): catalytic activity

MOLECULE: C=CCc1ccc(O)c(OC)c1
conversion as substrate (in words): catalytic activity

MOLECULE: CC(C)=CCCC(C)=CCCC(C)=CCO
conversion as substrate (in words): catalytic activity

Kindly consider the entry below.
Name the recorded conversion as substrate (in words) of the item CC(C)=CCC/C(C)=C/CO [Geraniol, (E)-3,7-dimethyl-2,6-octadien-1-ol] in your answer.
preferred
